Values from ChEMBL document CHEMBL3797029

- system_tested: Serine/threonine-protein kinase B-raf (Homo sapiens, UniProt P15056, V600E)
- Sequence (P15056 2-766 V600E limits assumed): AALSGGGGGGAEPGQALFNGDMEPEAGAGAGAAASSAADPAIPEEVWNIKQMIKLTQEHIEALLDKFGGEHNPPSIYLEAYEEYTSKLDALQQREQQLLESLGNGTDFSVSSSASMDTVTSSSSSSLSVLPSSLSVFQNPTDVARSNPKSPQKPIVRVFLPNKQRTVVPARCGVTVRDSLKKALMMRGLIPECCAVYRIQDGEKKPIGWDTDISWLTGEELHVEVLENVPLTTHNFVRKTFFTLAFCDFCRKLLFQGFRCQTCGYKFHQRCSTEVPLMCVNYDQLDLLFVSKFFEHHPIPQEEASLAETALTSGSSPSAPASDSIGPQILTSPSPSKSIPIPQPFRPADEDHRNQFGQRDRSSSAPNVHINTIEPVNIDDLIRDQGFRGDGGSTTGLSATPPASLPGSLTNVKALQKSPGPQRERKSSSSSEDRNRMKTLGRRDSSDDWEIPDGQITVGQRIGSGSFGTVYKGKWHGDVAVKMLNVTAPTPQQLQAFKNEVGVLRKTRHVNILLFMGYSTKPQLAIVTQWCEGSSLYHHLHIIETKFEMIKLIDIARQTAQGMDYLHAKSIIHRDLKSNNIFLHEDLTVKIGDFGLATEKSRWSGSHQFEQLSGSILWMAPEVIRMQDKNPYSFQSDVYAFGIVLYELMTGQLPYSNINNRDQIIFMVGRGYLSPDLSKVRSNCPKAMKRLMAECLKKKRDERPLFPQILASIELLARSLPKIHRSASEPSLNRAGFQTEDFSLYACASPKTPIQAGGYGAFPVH
- protocol_notes: Inhibition of B-Raf V600E mutant in human A375 cells assessed as ERK phosphorylation preincubated for 1 hr by Western blot method
- Type: cell-based, A-375
pIC50: −log10 of the molar value.
Measured pIC50, listed per entry for reference.
observable: pIC50

>  <record_smiles>
O=S(=O)(Nc1ccc(F)c(Nc2ncccc2-c2ncnc3[nH]cnc23)c1F)N1CC[C@H](O)C1

>  <sign_qualifier>
=

>  <experimental_result>
6.70

$$$$
>  <record_smiles>
O=S(=O)(Nc1ccc(F)c(Nc2ncccc2-c2ncnc3[nH]cnc23)c1F)c1cccc(F)c1

>  <sign_qualifier>
=

>  <experimental_result>
7.82

$$$$
>  <record_smiles>
CN(C)S(=O)(=O)Nc1ccc(F)c(Nc2ncccc2-c2ncnc3[nH]cnc23)c1F

>  <sign_qualifier>
=

>  <experimental_result>
7.27

$$$$
>  <record_smiles>
CCCS(=O)(=O)Nc1ccc(F)c(Nc2ncccc2-c2ncnc3[nH]cnc23)c1F

>  <sign_qualifier>
=

>  <experimental_result>
7.62

$$$$
>  <record_smiles>
O=S(=O)(CC(F)(F)F)Nc1ccc(F)c(Nc2ncccc2-c2ncnc3[nH]cnc23)c1F

>  <sign_qualifier>
=

>  <experimental_result>
7.40

$$$$
>  <record_smiles>
Cc1n[nH]c(C)c1S(=O)(=O)Nc1ccc(F)c(Nc2ncccc2-c2ncnc3[nH]cnc23)c1F

>  <sign_qualifier>
<

>  <experimental_result>
6.00

$$$$
>  <record_smiles>
Cn1cc(S(=O)(=O)Nc2ccc(F)c(Nc3ncccc3-c3ncnc4[nH]cnc34)c2F)cn1

>  <sign_qualifier>
=

>  <experimental_result>
6.15

$$$$
>  <record_smiles>
O=S(=O)(Nc1ccc(F)c(Nc2ncccc2-c2ncnc3[nH]cnc23)c1F)c1ccccc1

>  <sign_qualifier>
=

>  <experimental_result>
7.55

$$$$
>  <record_smiles>
CC(C)S(=O)(=O)Nc1ccc(F)c(Nc2ncccc2-c2ncnc3[nH]cnc23)c1F

>  <sign_qualifier>
=

>  <experimental_result>
7.35

$$$$
>  <record_smiles>
O=S(=O)(Nc1ccc(F)c(Nc2ncccc2-c2ncnc3[nH]cnc23)c1F)C1CC1

>  <sign_qualifier>
=

>  <experimental_result>
6.76

$$$$
>  <record_smiles>
O=S(=O)(Nc1ccc(F)c(Nc2ncccc2-c2ncnc3[nH]cnc23)c1F)c1nccs1

>  <sign_qualifier>
=

>  <experimental_result>
7.51

$$$$
>  <record_smiles>
CC(C)CS(=O)(=O)Nc1ccc(F)c(Nc2ncccc2-c2ncnc3[nH]cnc23)c1F

>  <sign_qualifier>
=

>  <experimental_result>
7.77

$$$$
>  <record_smiles>
O=S(=O)(CC1CC1)Nc1ccc(F)c(Nc2ncccc2-c2ncnc3[nH]cnc23)c1F

>  <sign_qualifier>
=

>  <experimental_result>
7.48

$$$$
>  <record_smiles>
O=S(=O)(Nc1ccc(F)c(Nc2ncccc2-c2ncnc3[nH]cnc23)c1F)c1cccnc1

>  <sign_qualifier>
=

>  <experimental_result>
8.00

$$$$
>  <record_smiles>
O=S(=O)(Nc1ccc(F)c(Nc2ncccc2-c2ncnc3[nH]cnc23)c1F)N1CCCC1

>  <sign_qualifier>
=

>  <experimental_result>
7.36

$$$$
>  <record_smiles>
O=S(=O)(Nc1ccc(F)c(Nc2ncccc2-c2ncnc3[nH]cnc23)c1F)C1CCOCC1

>  <sign_qualifier>
=

>  <experimental_result>
6.45

$$$$
>  <record_smiles>
CCN(CC)S(=O)(=O)Nc1ccc(F)c(Nc2ncccc2-c2ncnc3[nH]cnc23)c1F

>  <sign_qualifier>
=

>  <experimental_result>
6.22

$$$$
